System: A431
Assay: A431 cell proliferation assay (CellTiter Glo, 72 hours)
Format: cell-based
Conditions: Homo sapiens, A-431, 72 h, cell proliferation, A431, 72 hours, Table 2; read-out: A431 IC50
Description: Cell line: Ba/F3 cells with EGFR Δ19del/T790M/C797S mutation gene stably overexpressed named Ba/F3-Δ119del/T90M/C797S, and A431 and Ba/F3-EGFR wild-type cell line. RPMI 1640 and 10% FBS and 1% PS; DMEM and 10% FBS and 1% PS. […] c) Read luminous signal value with PerkinElmer reader, […] The data were analyzed by GraphPad Prism 6.0 software to obtain the fitting curve of compound activity. […]
pIC50: −log10 of the molar value.
compounds and their reported pIC50

Compound | pIC50
CCc1cc(Nc2ncc(Br)c(Nc3ccc(-c4ccccc4)c(C)c3P(C)(C)=O)n2)c(OC)cc1N1CCC(N2CCN(C)CC2)CC1 [Compound K-050] | 5.99
CCc1cc(Nc2ncc(Br)c(Nc3ccc(-c4cncc(OC)n4)cc3P(C)(C)=O)n2)c(OC)cc1N1CCC(N2CCN(C)CC2)CC1 [Compound 13] | 5.77
CCc1cc(Nc2ncc(Br)c(Nc3ccc(-n4cc(C)cn4)cc3P(C)(C)=O)n2)c(OC)cc1N1CCC(N2CCN(C)CC2)CC1 [Compound 86] | 5.79
